Let's go through some IC50 measurements on PI3Kγ (Homo sapiens) together.
Sequence (P48736 whole entry, species assumed): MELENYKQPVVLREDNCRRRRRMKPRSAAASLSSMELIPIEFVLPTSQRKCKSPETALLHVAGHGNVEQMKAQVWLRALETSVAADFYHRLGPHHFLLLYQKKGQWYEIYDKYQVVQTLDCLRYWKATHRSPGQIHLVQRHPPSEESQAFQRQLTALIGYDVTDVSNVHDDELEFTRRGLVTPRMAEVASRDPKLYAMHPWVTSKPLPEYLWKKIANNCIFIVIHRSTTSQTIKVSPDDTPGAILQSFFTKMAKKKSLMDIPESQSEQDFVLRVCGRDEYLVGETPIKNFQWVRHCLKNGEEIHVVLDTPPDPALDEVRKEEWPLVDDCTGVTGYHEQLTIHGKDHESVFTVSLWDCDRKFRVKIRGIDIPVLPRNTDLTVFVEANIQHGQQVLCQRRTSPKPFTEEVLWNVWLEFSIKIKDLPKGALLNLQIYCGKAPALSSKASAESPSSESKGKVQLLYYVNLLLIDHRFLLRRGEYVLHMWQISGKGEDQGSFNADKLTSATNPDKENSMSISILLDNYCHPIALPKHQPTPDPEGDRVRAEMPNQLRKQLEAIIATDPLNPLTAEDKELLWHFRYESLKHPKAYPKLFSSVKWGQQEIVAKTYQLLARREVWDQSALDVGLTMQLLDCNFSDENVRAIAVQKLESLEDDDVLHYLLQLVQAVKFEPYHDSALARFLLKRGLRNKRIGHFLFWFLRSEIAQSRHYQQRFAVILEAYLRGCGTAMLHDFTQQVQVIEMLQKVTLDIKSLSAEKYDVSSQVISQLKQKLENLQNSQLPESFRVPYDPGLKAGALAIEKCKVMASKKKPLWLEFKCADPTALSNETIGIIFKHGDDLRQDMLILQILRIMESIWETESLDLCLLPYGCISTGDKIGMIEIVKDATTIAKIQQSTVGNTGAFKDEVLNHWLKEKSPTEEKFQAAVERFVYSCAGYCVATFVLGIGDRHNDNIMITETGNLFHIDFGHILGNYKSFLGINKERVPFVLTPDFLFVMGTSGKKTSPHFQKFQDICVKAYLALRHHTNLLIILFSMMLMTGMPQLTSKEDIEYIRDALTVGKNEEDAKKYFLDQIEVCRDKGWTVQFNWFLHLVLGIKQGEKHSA

stdin: Determine from records and report IC50 for COc1ncc(-c2nc(N3CCOCC3)nc3c(CN4CCC(C(C)(C)O)CC4)cc(F)cc23)cc1NS(C)(=O)=O [YY-20394, reference compound]
stdout: > 10 µM

stdin: State, in one line, measured IC50 of COc1ncc(-c2nc(N3CCOCC3)nc3c(OC4CCN(c5ncc(C(=O)NO)cc5F)CC4)cc(F)cc23)cc1NS(C)(=O)=O
stdout: 1 to 10 µM
